These measurements were taken from a melting point compilation (Tetko et al.; mined from patent text by program, amines drawn as free bases though some values may be those of a salt).

Readings of melting point for the listed compounds
EXPERIMENTAL_READOUT: melting point

COMPOUND: Cc1ccc(-c2nc3ccc(OCCN4CCCCC4)cc3n2-c2ccccc2)cc1C
RESULT: 111 °C

COMPOUND: CC(C)OC(OC(C)C)(O[C@H](C)Cn1cnc2c(Cl)nc(N)nc21)P(=O)(O)O
RESULT: 130 to 132 °C

COMPOUND: CC(C)(C)OC(=O)NCCNC(=O)c1ccc([N+](=O)[O-])cn1
RESULT: 141 to 142 °C

COMPOUND: O=C(O)CCC(Cc1ccc(Cl)cc1)(C(=O)C=Cc1ccc(Cl)cc1)c1ccccc1 (centres undefined)
RESULT: 176 to 178 °C

COMPOUND: C/C(=C\CCC1(C)CCc2cc(O[Si](C)(C)C(C)(C)C)c(C)c(C)c2O1)CCl (centres undefined)
RESULT: 56 to 58 °C

COMPOUND: CCc1cccc(CCC(O)c2ccccc2)c1NC(=O)CC1c2ccccc2Oc2ccccc21 (centres undefined)
RESULT: 192 to 193 °C

COMPOUND: COC(=O)CCn1c2ccc(O)cc2c2c3c(c(-c4ccccc4Cl)cc21)C(=O)NC3=O
RESULT: 218 to 220 °C

COMPOUND: CC#CC(C)(C)NC(=O)C(CC)Oc1ccc2ncc(Br)cc2c1 (centres undefined)
RESULT: 109 to 112 °C

COMPOUND: CCNC(=O)c1sc(C=O)cc1[Si](C)(C)C
RESULT: 62 to 65 °C

---

Below: a set of entries, each annotated with reported melting point.

COMPOUND: CCOCC(=O)C(=CN(CC)CC)c1cccc(C(F)(F)F)c1
melting point: 131 to 133 °C
--
COMPOUND: Nc1nc2c(Oc3ccccc3)cccc2s1
melting point: 135 to 137 °C
--
COMPOUND: N#Cc1ccc(COc2ccc(-c3ccc(C4Cc5ccccc5C(c5c(O)c6ccccc6oc5=O)C4)cc3)cc2)cc1 (stereo unspecified)
melting point: 127 °C
--
COMPOUND: COc1ccc(S(=O)(=O)Nc2nsc(-c3ccc(Cl)cc3)n2)cc1OC
melting point: 220 to 221 °C
--
COMPOUND: CC(C)C1(C)Cc2cc(OCC#N)c(Cl)c(Cl)c2C1=O (stereo unspecified)
melting point: 133 °C
--
COMPOUND: O=C(c1ccc2nonc2c1)N1C2CCC1CC(F)(F)C2
melting point: 165 to 166 °C

---

MOLECULE: Cc1cc(-c2nc3sc4ccccc4n3c2CC(=O)O)c(C)s1
melting point: 249 to 250 °C

MOLECULE: O=C(Nc1ccc(Cl)cc1)c1cc(Br)c2cccnc2c1O
melting point: 213 to 215 °C

MOLECULE: COc1ccc(Cc2cc(CCNS(=O)(=O)c3ccc(Cl)cc3)cc(CCC(=O)O)c2)cc1
melting point: 106 to 108 °C

MOLECULE: CCn1ncc2c(Cl)cc(-c3ccccc3)nc21
melting point: 43 to 45 °C

MOLECULE: O=C1NC(=O)C2(N1)C(=O)N(Cc1ccc(Cl)c(Cl)c1)c1ccc([N+](=O)[O-])cc12 (centres undefined)
melting point: 245 to 246 °C

MOLECULE: N#Cc1cnc2cc(Cl)c([N+](=O)[O-])cc2c1Nc1ccc(Oc2ccccc2)cc1
melting point: 220 to 222 °C

MOLECULE: COc1ccc(-c2nnc(SC)nc2-c2ccc(OC)cc2)cc1
melting point: 152 to 155 °C

MOLECULE: N#Cc1ccc(CCc2ccc(CN3C(=O)c4ccccc4C3=O)cc2)cc1
melting point: 194 to 197 °C

MOLECULE: COc1ccc(CS[C@@H]2C[C@@H](CNCc3ccccc3)N(S(C)(=O)=O)C2)cc1
melting point: 63 to 64 °C

---

melting point values for the compounds below.
EXPERIMENTAL_READOUT: melting point

MOLECULE: Cn1cc(C(=O)C(=O)NC2=CC(=O)OC2)c2ccccc21
EXPERIMENTAL_READOUT: melting point
RESULT: 262 to 264 °C
--
MOLECULE: COc1ccc(CN2CCC(C(O)(c3ccc(OC(F)(F)F)cc3)c3ccc(OC(F)(F)F)cc3)CC2)cc1
EXPERIMENTAL_READOUT: melting point
RESULT: 86 to 96 °C
--
MOLECULE: COc1cc(C(N)=O)ccc1OCCCN1CCC(c2noc3cc(F)ccc23)CC1
EXPERIMENTAL_READOUT: melting point
RESULT: 163 to 164 °C
--
MOLECULE: Cc1cccc(C#N)c1[N+](=O)[O-]
EXPERIMENTAL_READOUT: melting point
RESULT: 74.5 to 77 °C
--
MOLECULE: O=C(c1cc2c(cc1Cl)OCO2)N1CCOCC1
EXPERIMENTAL_READOUT: melting point
RESULT: 155 °C

---

COMPOUND: CCOC(=O)c1ccc(N(C=O)Cc2ccc(Cl)cc2)cc1
melting point: 72 to 73 °C
//
COMPOUND: CC(C)(C)C1=NN=C(N)SC1
melting point: 75 to 77 °C
//
COMPOUND: COc1cc2c(cc1OC)C(CCN1CCN(c3cccc(Cl)c3)CC1)OCCC2 (stereo unspecified)
melting point: 125 to 126 °C
//
COMPOUND: CNc1nc2ccc(Cc3ccccn3)cc2s1
melting point: 118 to 121 °C
//
COMPOUND: Cc1cc(F)ccc1-c1cc(N2CCSCC2)ncc1N(C)C(=O)C(C)(C)c1cc(C(F)(F)F)cc(C(F)(F)F)c1
melting point: 168 to 170 °C
//
COMPOUND: O=C(Nc1cccnn1)N1CCN(c2nccc(-c3c(F)cccc3F)n2)CC1
melting point: 228 to 229 °C
//
COMPOUND: COc1cc(OC)c2c(=O)cc(Oc3ccccc3)oc2c1C1CCN(C)CC1O (stereo unspecified)
melting point: 238 to 239 °C
//
COMPOUND: Cc1ccc(CCN2CCC[C@H](C(C#N)(c3ccccc3)c3ccccc3)C2)cc1
melting point: 110 to 113 °C
//
COMPOUND: CCC1(CC)OC(=O)C(Cn2cncn2)(c2ccc(Cl)cc2)O1 (stereo unspecified)
melting point: 105 to 108 °C
//
COMPOUND: COc1ccc2c(c1)C(=O)c1c-2c(N2CCN(C(=O)CCCl)CC2)nc2ccccc12
melting point: 162 to 163 °C
//
COMPOUND: COc1cc(CC(=O)N2CCN(C(=O)CNC3CCN(Cc4ccccc4)CC3)C(c3ccccc3)C2)cc(OC)c1OC (stereo unspecified)
melting point: 53 to 56 °C
//
COMPOUND: O=C(Nc1ccccc1)N1CC2CC(CN(Cc3ccc(Cl)cc3)C2)C1
melting point: 187 °C
//
COMPOUND: CC(=O)NC1(c2ccc(C(C)N3CCN(c4ccc(F)cc4)CC3)cc2)CC1 (stereo unspecified)
melting point: 149 to 150 °C
//
COMPOUND: C#Cc1cn(-c2c(Cl)cc(C(F)(F)F)cc2Cl)nc1C(F)(F)F
melting point: 95 to 98 °C
//
COMPOUND: CC(C)(O)Cn1cnc2c(N)nc3c(c21)CCCC3
melting point: 260 to 261 °C
//
COMPOUND: CCS(=O)(=O)Oc1cn(C)c2cc(F)ccc2c1=O
melting point: 154 to 156 °C
//
COMPOUND: N#Cc1cccnc1N1CCN(CC(=O)Nc2ccccc2)CC1
melting point: 110 to 112 °C
//
COMPOUND: Cc1ccc([N+](=O)[O-])c(C)c1[N+](=O)[O-]
melting point: 81 to 83 °C
//
COMPOUND: O=C1c2ccccc2COc2ccc(Br)cc21
melting point: 132 to 134 °C
//
COMPOUND: C=C(C)C(=O)NCC(OC)OC
melting point: 30 to 32 °C
//
COMPOUND: O=C1CN=C(c2ccccc2)c2cc(C(c3ccc(Cl)cc3)n3ccnc3)ccc2N1 (stereo unspecified)
melting point: 144 °C

---

EXPERIMENTAL_READOUT: melting point

COMPOUND: NC(=O)c1cccc(OCCOC2CCNCC2)c1
RESULT: 144 to 146 °C
//
COMPOUND: CN(C)C1(c2ccccc2)CCC(C#N)(N2CCCC2)CC1 (stereo not given)
RESULT: 136 to 142 °C
//
COMPOUND: COc1cccc(Nc2ccnc(Nc3cc(NC(C)=O)c(OC)c(OC)c3)n2)c1
RESULT: 158 to 160 °C
//
COMPOUND: Cc1c(C(=O)Nc2ccc(N(CCO)CCO)c(C#N)c2)cnn1-c1ccc(F)cc1
RESULT: 158 to 159 °C
//
COMPOUND: CCCCC(=O)N(Cc1ccc(OC)cc1)c1cc(F)cc(-c2nnn[nH]2)c1
RESULT: 122 to 125 °C
//
COMPOUND: Cc1cc(F)ccc1-c1ccc(S(=O)(=O)N2c3ccccc3CC2C(=O)NCCOc2ccc(CC(=O)O)cc2)cc1 (stereo not given)
RESULT: 99 to 105 °C
//
COMPOUND: Nc1nc(N)nc(N2CC=CCC2)n1
RESULT: 200 to 202 °C
//
COMPOUND: COc1c(C)c(C)cc(C)c1C(O)(c1ccc(C(C)C)cc1)C1CCN(Cc2ccccc2)CC1 (stereo not given)
RESULT: 154 to 156 °C
//
COMPOUND: Cc1nc2c(N)nc3ccccc3c2n1CC(C)(C)CC1(C)OCCO1
RESULT: 209 to 211 °C
//
COMPOUND: COP(=O)(NNC(C)(C)C)OC
RESULT: 61 to 68 °C
